# tested on: soybean lipoxidase (Glycine max, UniProt P08170)
# Construct: purchased Sigma-Aldrich (St. Louis, MO, USA) type V-S; host or cells: soybean (plant preparation)
# Sequence (P08170 whole entry): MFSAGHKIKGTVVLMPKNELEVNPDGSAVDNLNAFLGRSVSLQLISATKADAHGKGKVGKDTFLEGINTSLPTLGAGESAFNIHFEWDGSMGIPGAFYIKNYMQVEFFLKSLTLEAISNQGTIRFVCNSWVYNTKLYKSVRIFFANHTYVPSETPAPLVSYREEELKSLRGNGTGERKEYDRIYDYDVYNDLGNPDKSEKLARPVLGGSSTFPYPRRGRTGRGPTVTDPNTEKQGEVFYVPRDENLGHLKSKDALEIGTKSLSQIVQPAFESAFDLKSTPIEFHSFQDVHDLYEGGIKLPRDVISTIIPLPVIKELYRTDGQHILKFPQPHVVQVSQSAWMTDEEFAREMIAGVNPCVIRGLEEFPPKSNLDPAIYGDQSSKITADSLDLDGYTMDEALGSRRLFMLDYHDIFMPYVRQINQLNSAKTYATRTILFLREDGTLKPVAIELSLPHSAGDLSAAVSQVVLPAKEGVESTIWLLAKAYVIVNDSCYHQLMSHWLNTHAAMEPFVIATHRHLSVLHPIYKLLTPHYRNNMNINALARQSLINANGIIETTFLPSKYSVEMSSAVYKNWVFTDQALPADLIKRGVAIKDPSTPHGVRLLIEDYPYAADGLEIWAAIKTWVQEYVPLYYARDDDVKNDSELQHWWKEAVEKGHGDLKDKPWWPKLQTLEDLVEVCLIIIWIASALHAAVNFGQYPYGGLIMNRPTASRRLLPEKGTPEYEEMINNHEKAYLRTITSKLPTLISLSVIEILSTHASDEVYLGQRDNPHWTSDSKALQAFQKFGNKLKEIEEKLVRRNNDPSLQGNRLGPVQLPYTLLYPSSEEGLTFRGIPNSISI
# assay overview: Soybean lipoxidase inhibition, cell-free
# Assay type: biochemical, Glicine max (L.) Merr.
# measurement conditions: 183.5 µM; maximal inhibition, mean±SEM
measured quantity: inhibition at 183.5 µM (%)

[[record]]
compound = "O=C1C=CC(=O)c2c(O)cccc21"
tested_on = "soybean lipoxidase (Glycine max, UniProt P08170)"
recorded_number = 53.1

[[record]]
compound = "CC1=CC(=O)c2c(O)cccc2C1=O"
tested_on = "soybean lipoxidase (Glycine max, UniProt P08170)"
recorded_number = 49.8

[[record]]
compound = "Cc1cc(O)c2c(c1)C(=O)C(c1c(C)cc3c(c1O)C(=O)C1OC1C3=O)=CC2=O (centres unmarked)"
tested_on = "soybean lipoxidase (Glycine max, UniProt P08170)"
recorded_number = 96.5

[[record]]
compound = "O=C1C=CC(=O)c2c(O)ccc(O)c21"
tested_on = "soybean lipoxidase (Glycine max, UniProt P08170)"
recorded_number = 54.4

[[record]]
compound = "CC1=CC(=O)c2ccccc2C1=O"
tested_on = "soybean lipoxidase (Glycine max, UniProt P08170)"
recorded_number = 83.4


====

# tested on: soybean lipoxidase (Glycine max, UniProt P08170)
# assay overview: Soybean lipoxidase inhibition, cell-free
# measurement conditions: cell-free assay; mean±SEM
pIC50: −log10 of the molar value.
measured quantity: pIC50

[[record]]
compound = "Cc1cc(O)c2c(c1)C(=O)C(c1c(C)cc3c(c1O)C(=O)C1OC1C3=O)=CC2=O (centres unmarked)"
tested_on = "soybean lipoxidase (Glycine max, UniProt P08170)"
bound_sign = "="
recorded_number = 4.08

[[record]]
compound = "CC1=CC(=O)c2c(O)cccc2C1=O"
tested_on = "soybean lipoxidase (Glycine max, UniProt P08170)"
bound_sign = "<"
recorded_number = 3.74

[[record]]
compound = "CC1=CC(=O)c2ccccc2C1=O"
tested_on = "soybean lipoxidase (Glycine max, UniProt P08170)"
bound_sign = "="
recorded_number = 3.89

[[record]]
compound = "Cc1cc(O)c2c(c1)C(=O)C(c1c(C)cc3c(c1O)C(=O)C=CC3=O)=CC2=O"
tested_on = "soybean lipoxidase (Glycine max, UniProt P08170)"
bound_sign = "="
recorded_number = 4.54

[[record]]
compound = "O=C1C=CC(=O)c2c(O)ccc(O)c21"
tested_on = "soybean lipoxidase (Glycine max, UniProt P08170)"
bound_sign = "="
recorded_number = 3.85

